# assayOverview: Selectivity index, ratio of IC50 for rat L6 cells to IC50 for Plasmodium falciparum K1
# Assay type: toxicity, cell-based
# conditionDetails: read-out: Ratio IC50
# note: exactly 300 is not below, so it is No; use Yes for selectivity ratio strictly under it

[
  {
    "smilesInput": "CCN(CC)c1ccc2nc3c4ccccc4/c(=N\\c4ccc([N+](=O)[O-])cc4)cc-3oc2c1",
    "label": "No"
  },
  {
    "smilesInput": "CCN(CC)c1ccc2nc3c4ccccc4/c(=N\\c4ccccc4)cc-3oc2c1",
    "label": "No"
  },
  {
    "smilesInput": "CCN(CC)c1ccc2nc3c4ccccc4/c(=N\\c4ccc(C)cc4)cc-3oc2c1",
    "label": "No"
  },
  {
    "smilesInput": "CCN(CC)c1ccc2nc3c4ccccc4/c(=N\\c4ccc([N+](=O)[O-])cc4Cl)cc-3oc2c1",
    "label": "Yes"
  }
]

###

Each item that follows carries a reported selectivity ratio.
# assayOverview: Selectivity index, ratio of IC50 for rat L6 cells to IC50 for Trypanosoma cruzi Tulahuen C4
# Type: toxicity, cell-based
# conditionDetails: read-out: Ratio IC50

[
  {
    "smilesInput": "CCN(CC)c1ccc2nc3c4ccccc4/c(=N\\c4ccc(OC)cc4)cc-3oc2c1",
    "selectivity ratio": 2.82
  },
  {
    "smilesInput": "CCN(CC)c1ccc2nc3c4ccccc4/c(=N\\c4ccccc4)cc-3oc2c1",
    "selectivity ratio": "< 0.79"
  },
  {
    "smilesInput": "CCN(CC)c1ccc2nc3c4ccccc4/c(=N\\c4ccc([N+](=O)[O-])cc4)cc-3oc2c1",
    "selectivity ratio": 0.91
  },
  {
    "smilesInput": "CCN(CC)c1ccc2nc3c4ccccc4/c(=N\\c4ccc([N+](=O)[O-])cc4C#N)cc-3oc2c1",
    "selectivity ratio": 0.43
  },
  {
    "smilesInput": "CCN(CC)c1ccc2nc3c4ccccc4/c(=N\\c4cccc(OC)c4)cc-3oc2c1",
    "selectivity ratio": 0.28
  },
  {
    "smilesInput": "CCN(CC)c1ccc2nc3c4ccccc4/c(=N\\c4ccccc4Cl)cc-3oc2c1",
    "selectivity ratio": 0.71
  },
  {
    "smilesInput": "CCN(CC)c1ccc2nc3c4ccccc4/c(=N\\c4ccc(C)cc4)cc-3oc2c1",
    "selectivity ratio": 6.42
  },
  {
    "smilesInput": "CCN(CC)c1ccc2nc3c4ccccc4/c(=N\\c4ccc([N+](=O)[O-])cc4Cl)cc-3oc2c1",
    "selectivity ratio": 1.34
  },
  {
    "smilesInput": "CCN(CC)c1ccc2nc3c4ccccc4/c(=N\\c4cccc(Cl)c4)cc-3oc2c1",
    "selectivity ratio": 1.68
  }
]

###

# assayOverview: Selectivity index, ratio of IC50 for rat L6 cells to IC50 for Plasmodium falciparum K1
# Format: toxicity, cell-based
# conditionDetails: read-out: Ratio IC50
List of selectivity ratio values.
measuredEndpoint: selectivity ratio

[
  {
    "smilesInput": "CCN(CC)c1ccc2nc3c4ccccc4/c(=N\\c4ccccc4Cl)cc-3oc2c1",
    "measuredEndpoint": "selectivity ratio",
    "measuredResult": 261
  },
  {
    "smilesInput": "CCN(CC)c1ccc2nc3c4ccccc4/c(=N\\c4cccc(Cl)c4)cc-3oc2c1",
    "measuredEndpoint": "selectivity ratio",
    "measuredResult": 617
  },
  {
    "smilesInput": "CCN(CC)c1ccc2nc3c4ccccc4/c(=N\\c4cccc(OC)c4)cc-3oc2c1",
    "measuredEndpoint": "selectivity ratio",
    "measuredResult": 883
  },
  {
    "smilesInput": "CCN(CC)c1ccc2nc3c4ccccc4/c(=N\\c4ccc(OC)cc4)cc-3oc2c1",
    "measuredEndpoint": "selectivity ratio",
    "measuredResult": 1420
  }
]
